# STUDY TARGET: Cav2.3 (Homo sapiens)
# TEST DETAILS: Human Cav2.3 channel calcium-influx assay
# Format: cell-based
# PROTOCOL CONDITIONS: Fluo8 fluorescence, HEK-293 T-Rex/Kir2.1/Cav2.3e cells, without pluronic acid, read-out: Cav2.3 (pIC50) (converted)
# Protocol: HEK-293 T-Rex cells were transfected with pcDNA3.1-Kir2.1 to generate a stable cell line. After antibiotic selection, the obtained stable pools were analysed using FLIPR^TETRA (membrane potential assay), and a limiting dilution was performed and a HEK-293 T-Rex/Kir2.1 clone was selected. […] Data analysis was performed with Genedata Screener® software and reported compounds activity as % effect in relation to the normalization standards. The Kinetic Response Value (KRV) is calculated as follows: […]
Lab note: compare IC50 with 200 nM, writing Met if less and Not met if equal or more.

// known answers, use as guide
MOLECULE	STUDY TARGET	LABEL CLASS
CN(C(c1ccc(F)cc1)C(F)(F)F)S(=O)(=O)c1ccc(F)s1 (centres unmarked) [Example 17]	Cav2.3 (Homo sapiens)	Not met
CCN([C@H](c1ccc(F)cc1)C(F)(F)F)S(=O)(=O)c1cnc2ccnn2c1 [Example 165]	Cav2.3 (Homo sapiens)	Met
CCN([C@H](c1ccc(F)cc1)C(F)(F)F)S(=O)(=O)c1cnc2ncccn12 [Example 177]	Cav2.3 (Homo sapiens)	Met
CCN([C@H](c1ccc(F)cc1)C(F)(F)F)S(=O)(=O)c1cnc2ncsc2c1 [Example 151]	Cav2.3 (Homo sapiens)	Met
CCN([C@H](c1ccc(F)cc1)C(F)(F)F)S(=O)(=O)c1ccc2[nH]nnc2c1 [Example 189]	Cav2.3 (Homo sapiens)	Met

Does this molecule meet the criterion IC50 < 200 nM? CCN([C@@H](c1ccc(OC(F)(F)F)cc1)C(F)(F)F)S(=O)(=O)c1cncc(C#N)c1 [Example 118]
Not met

Does this molecule meet the criterion IC50 < 200 nM? COc1ccc([C@@H](N(C)S(=O)(=O)c2cncc(F)c2)C(F)(F)F)cc1 [Example 221]
Not met

Does this molecule meet the criterion IC50 < 200 nM? CN(C(c1ccc(C(F)(F)F)cc1)C(F)(F)F)S(=O)(=O)c1cncc(C#N)c1 (centres unmarked) [Example 67]
Met

###

The entries below come with measured IC50 values attached.
# STUDY TARGET: Cav2.3 (Homo sapiens, UniProt Q15878)
# Sequence (Q15878 whole entry, looked up): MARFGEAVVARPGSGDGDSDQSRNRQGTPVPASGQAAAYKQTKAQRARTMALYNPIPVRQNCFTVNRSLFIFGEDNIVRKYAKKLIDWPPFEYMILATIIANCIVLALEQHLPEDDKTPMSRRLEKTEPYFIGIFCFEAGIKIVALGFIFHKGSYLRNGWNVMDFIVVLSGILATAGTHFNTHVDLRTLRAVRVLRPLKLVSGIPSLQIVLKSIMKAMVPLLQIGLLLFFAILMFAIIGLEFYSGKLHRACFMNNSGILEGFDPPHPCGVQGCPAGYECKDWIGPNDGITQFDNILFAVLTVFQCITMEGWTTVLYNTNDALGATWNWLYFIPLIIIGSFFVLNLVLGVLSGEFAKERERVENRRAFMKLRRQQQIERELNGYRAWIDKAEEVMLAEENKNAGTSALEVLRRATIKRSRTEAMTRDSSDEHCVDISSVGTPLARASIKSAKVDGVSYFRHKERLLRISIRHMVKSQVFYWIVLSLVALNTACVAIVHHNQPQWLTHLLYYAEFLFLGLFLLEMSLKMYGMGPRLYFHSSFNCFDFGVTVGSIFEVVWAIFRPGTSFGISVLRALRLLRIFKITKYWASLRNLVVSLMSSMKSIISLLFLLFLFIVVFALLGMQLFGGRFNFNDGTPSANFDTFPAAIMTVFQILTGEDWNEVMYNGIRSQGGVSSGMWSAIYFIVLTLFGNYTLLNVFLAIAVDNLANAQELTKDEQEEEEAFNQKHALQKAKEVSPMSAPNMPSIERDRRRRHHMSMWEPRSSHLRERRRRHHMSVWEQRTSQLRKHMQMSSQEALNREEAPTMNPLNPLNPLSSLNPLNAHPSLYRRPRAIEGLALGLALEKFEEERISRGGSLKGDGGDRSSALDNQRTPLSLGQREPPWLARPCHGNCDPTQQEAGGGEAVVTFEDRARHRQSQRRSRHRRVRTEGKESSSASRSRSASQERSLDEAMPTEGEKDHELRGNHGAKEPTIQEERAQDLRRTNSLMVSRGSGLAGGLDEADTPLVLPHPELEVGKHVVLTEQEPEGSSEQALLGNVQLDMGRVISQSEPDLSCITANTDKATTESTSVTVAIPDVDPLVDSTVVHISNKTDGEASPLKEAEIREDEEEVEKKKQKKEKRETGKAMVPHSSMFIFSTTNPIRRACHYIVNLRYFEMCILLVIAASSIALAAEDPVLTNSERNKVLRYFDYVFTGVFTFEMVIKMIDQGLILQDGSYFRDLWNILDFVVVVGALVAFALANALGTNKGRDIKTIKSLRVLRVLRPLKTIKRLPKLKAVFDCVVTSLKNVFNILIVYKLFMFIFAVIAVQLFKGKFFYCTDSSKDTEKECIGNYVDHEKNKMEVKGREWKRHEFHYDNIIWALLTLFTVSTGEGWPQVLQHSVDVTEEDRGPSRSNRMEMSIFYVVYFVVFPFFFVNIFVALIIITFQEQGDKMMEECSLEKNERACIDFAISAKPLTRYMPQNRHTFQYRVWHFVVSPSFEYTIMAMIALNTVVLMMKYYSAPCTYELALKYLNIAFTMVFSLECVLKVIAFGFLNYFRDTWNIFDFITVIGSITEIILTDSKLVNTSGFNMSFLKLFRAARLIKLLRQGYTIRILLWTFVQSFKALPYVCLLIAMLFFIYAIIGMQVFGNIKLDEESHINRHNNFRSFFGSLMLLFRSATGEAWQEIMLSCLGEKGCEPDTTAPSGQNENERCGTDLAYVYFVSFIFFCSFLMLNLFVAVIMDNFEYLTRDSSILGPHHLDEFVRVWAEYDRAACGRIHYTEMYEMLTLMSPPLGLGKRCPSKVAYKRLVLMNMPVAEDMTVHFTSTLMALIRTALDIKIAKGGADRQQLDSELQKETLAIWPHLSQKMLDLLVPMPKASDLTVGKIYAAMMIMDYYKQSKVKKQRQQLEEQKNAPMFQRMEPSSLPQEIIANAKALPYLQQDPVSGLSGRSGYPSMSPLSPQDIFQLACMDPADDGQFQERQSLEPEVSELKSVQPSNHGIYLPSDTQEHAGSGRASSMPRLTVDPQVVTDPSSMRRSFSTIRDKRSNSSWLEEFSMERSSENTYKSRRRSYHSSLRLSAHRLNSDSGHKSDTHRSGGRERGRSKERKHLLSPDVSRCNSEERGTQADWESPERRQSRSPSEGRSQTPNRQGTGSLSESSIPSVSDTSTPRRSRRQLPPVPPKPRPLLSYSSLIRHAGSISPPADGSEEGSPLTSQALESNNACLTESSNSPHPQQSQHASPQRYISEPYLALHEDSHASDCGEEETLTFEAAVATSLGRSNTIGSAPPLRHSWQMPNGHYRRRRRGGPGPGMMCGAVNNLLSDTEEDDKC
# TEST DETAILS: Human Cav2.3 channel calcium-influx assay
# Type: cell-based
# PROTOCOL CONDITIONS: Fluo8 fluorescence, HEK-293 T-Rex/Kir2.1/Cav2.3e cells, without pluronic acid, read-out: Cav2.3 (pIC50) (converted)
The reply should contain only the number, in nM.

Fill in the recorded IC50 for this molecule, with Cav2.3 (Homo sapiens, UniProt Q15878) as test system: CN([C@H](c1ccc(Cl)cc1)C(F)(F)F)S(=O)(=O)c1cc2nncn2cn1 [Example 204]
759

Fill in the recorded IC50 for this molecule, with Cav2.3 (Homo sapiens, UniProt Q15878) as test system: CN([C@H](c1ccc(C(F)(F)F)cc1)C(F)(F)F)S(=O)(=O)c1cncc(C#N)c1 [Example 68]
35.5

Fill in the recorded IC50 for this molecule, with Cav2.3 (Homo sapiens, UniProt Q15878) as test system: CCN(C(c1ccc(F)cc1)C(F)(F)F)S(=O)(=O)c1cncc(C(N)=O)c1 (stereo not shown) [Example 51]
372

###

# STUDY TARGET: UniProt Q15878
# TEST DETAILS: Human Cav2.3 channel calcium-influx assay
# Format: cell-based
# PROTOCOL CONDITIONS: Fluo8 fluorescence, HEK-293 T-Rex/Kir2.1/Cav2.3e cells, without pluronic acid, read-out: Cav2.3 (pIC50) (converted)
# Procedure: HEK-293 T-Rex cells were transfected with pcDNA3.1-Kir2.1 to generate a stable cell line. After antibiotic selection, the obtained stable pools were analysed using FLIPR^TETRA (membrane potential assay), and a limiting dilution was performed and a HEK-293 T-Rex/Kir2.1 clone was selected. […] Data analysis was performed with Genedata Screener® software and reported compounds activity as % effect in relation to the normalization standards. The Kinetic Response Value (KRV) is calculated as follows: […]
Lab note: compare IC50 with 400 nM, writing y if less and n if equal or more.

MOLECULE	STUDY TARGET	LABEL CLASS
COc1ccc([C@@H](N(C)S(=O)(=O)C2CCOCC2)C(F)(F)F)cc1	UniProt Q15878	n
CCN([C@H](c1ccc(F)cc1)C(F)(F)F)S(=O)(=O)c1cncc(F)c1	UniProt Q15878	y
CCN([C@H](c1ccc(OC(F)(F)F)cc1)C(F)(F)F)S(=O)(=O)c1cncc(C#N)c1	UniProt Q15878	y
Cc1ccc([C@@H](N(C)S(=O)(=O)c2cn3ccncc3n2)C(F)(F)F)cc1	UniProt Q15878	n

Does this molecule meet the criterion IC50 < 400 nM? CCN(C(c1ccc(F)cc1)C(F)(F)F)S(=O)(=O)c1ccc(=O)n(C)c1 (centres unmarked)
y

Does this molecule meet the criterion IC50 < 400 nM? CCN([C@H](c1ccc(C(F)(F)F)c(C)c1)C(F)(F)F)S(=O)(=O)c1cncc(F)c1
y

Does this molecule meet the criterion IC50 < 400 nM? CCN(C(c1ccc(F)cc1)C(F)(F)F)S(=O)(=O)c1ccc(C#N)s1 (centres unmarked)
n

Does this molecule meet the criterion IC50 < 400 nM? CCN([C@H](c1ccc(F)cc1)C(F)(F)F)S(=O)(=O)c1cccc2[nH]ncc12
y

###

The entries below come with measured IC50 values attached.
# STUDY TARGET: Cav2.3 (Homo sapiens)
# TEST DETAILS: Human Cav2.3 channel calcium-influx assay
# Type: cell-based
# PROTOCOL CONDITIONS: Fluo8 fluorescence, HEK-293 T-Rex/Kir2.1/Cav2.3e cells, without pluronic acid, read-out: Cav2.3 (pIC50) (converted)
# Experimental: HEK-293 T-Rex cells were transfected with pcDNA3.1-Kir2.1 to generate a stable cell line. After antibiotic selection, the obtained stable pools were analysed using FLIPR^TETRA (membrane potential assay), and a limiting dilution was performed and a HEK-293 T-Rex/Kir2.1 clone was selected. […] Data analysis was performed with Genedata Screener® software and reported compounds activity as % effect in relation to the normalization standards. The Kinetic Response Value (KRV) is calculated as follows: […]
The reply should contain only the number, in nM.

Some compounds with known IC50 results, for comparison:
COMPOUND	STUDY TARGET	UNITS LABEL	IC50
COc1cc(S(=O)(=O)N(C)[C@H](c2ccc(Cl)cc2)C(F)(F)F)c(OC)nn1 [Example 228]	Cav2.3 (Homo sapiens)	nM	891
CCN([C@@H](c1ccc(OC)cc1)C(F)(F)F)S(=O)(=O)c1cncc(F)c1 [Example 256]	Cav2.3 (Homo sapiens)	nM	4270
CCN([C@H](c1ccc(F)cc1)C(F)(F)F)S(=O)(=O)c1ccc2[nH]ncc2n1 [Example 188]	Cav2.3 (Homo sapiens)	nM	309
CCN([C@H](c1ccc(F)cc1)C(F)(F)F)S(=O)(=O)c1cnc2cccnn12 [Example 176]	Cav2.3 (Homo sapiens)	nM	91.2

Fill in: IC50 of Cc1cc([C@@H](N(C)S(=O)(=O)c2cncc(F)c2)C(F)(F)F)ccc1C(F)(F)F [Example 270] is ___
490

Fill in: IC50 of CCN([C@H](c1ccc(C(F)(F)F)cc1)C(F)(F)F)S(=O)(=O)c1cnc2ccccn12 [Example 237] is ___
30.2

Fill in: IC50 of CCN(C(c1ccc(Cl)cc1)C(F)(F)F)S(=O)(=O)c1cncc(C#N)c1 (centres unmarked) [Example 54] is ___
37.2

Fill in: IC50 of CCN([C@@H](c1ccc(OC)cc1)C(F)(F)F)S(=O)(=O)C1CCOCC1 [Example 126] is ___
30200

###

# STUDY TARGET: Cav2.3 (Homo sapiens)
# TEST DETAILS: Whole-cell patch clamp assay (QPatch) in HEK-293 T-Rex/Kir2.1/Cav2.3e-β4-α2δ1 cells
# Type: cell-based
# PROTOCOL CONDITIONS: QPatch 16X, room temperature, mean ± S.E, read-out: Cav2.3 (pIC50) (converted)
The entries below come with measured log10 of IC50 values attached.
For clarity, the numbers are log10 values of IC50 expressed in µM.

Some molecules with known log10 of IC50 results, for comparison:
MOLECULE	STUDY TARGET	RECORDED METRIC	OBSERVED MEASUREMENT
CCN([C@H](c1ccc(F)cc1)C(F)(F)F)S(=O)(=O)c1cncc(C#N)c1	Cav2.3 (Homo sapiens)	log10 of IC50	-1.33
CN([C@H](c1ccc(C(F)(F)F)cc1)C(F)(F)F)S(=O)(=O)c1cncc(C#N)c1	Cav2.3 (Homo sapiens)	log10 of IC50	-1.14

Fill in: log10 of IC50 of CN(C(c1ccc(F)cc1)C(F)(F)F)S(=O)(=O)c1ccc(C#N)s1 (stereo not shown) is ___
0.17

Fill in: log10 of IC50 of Cc1ccc(S(=O)(=O)N(C)[C@H](c2ccc(F)cc2)C(F)(F)F)s1 is ___
0.41

Fill in: log10 of IC50 of CN([C@H](c1ccc(Cl)cc1)C(F)(F)F)S(=O)(=O)c1ccn2ncnc2c1 is ___
-0.34

Fill in: log10 of IC50 of CCN(C(c1ccc(F)cc1)C(F)(F)F)S(=O)(=O)c1cncnc1 (stereo not shown) is ___
-0.83

Fill in: log10 of IC50 of CN([C@H](c1ccc(C(F)(F)F)cc1)C(F)(F)F)S(=O)(=O)c1cncnc1 is ___
-0.53

Fill in: log10 of IC50 of CCN([C@H](c1ccc(F)cc1)C(F)(F)F)S(=O)(=O)c1cncc(N2CCOCC2)c1 is ___
-1.17

Fill in: log10 of IC50 of CCN(C(c1ccc(F)cc1)C(F)(F)F)S(=O)(=O)CC1CCOCC1 (stereo not shown) is ___
-0.15

Fill in: log10 of IC50 of CCN([C@H](c1ccc(F)cc1)C(F)(F)F)S(=O)(=O)c1cnc(C)nc1 is ___
-0.25

Fill in: log10 of IC50 of CCN([C@@H](c1ccc(F)cc1)C(F)(F)F)S(=O)(=O)c1ccc(C#N)s1 is ___
-0.35

Fill in: log10 of IC50 of CCN([C@H](c1ccc(F)cc1)C(F)(F)F)S(=O)(=O)c1cncc(F)c1 (stereo in doubt) is ___
-1.37
